test system: muscarinic receptors; assay: PI cortex: agonist activity at muscarinic receptors in rat central nervous system; assay type: biochemical; conditions: mean from one to three experiments, each in triplicate
Where a name gives a salt, the structure may show the parent alone.
measured_metric: PI cortex (at 100 μM) (%)
Answers are plain numbers, in %.

Examples with their reported PI cortex (at 100 μM) follow.
C#C/C(C)=C\COC(=O)C1CN=CNC1 (centres unmarked) [CDD-0162-A, HCl]    50
O=C(OCC#Cc1ccccc1)C1CN=CNC1 (centres unmarked) [CDD-0189-A, HCl]    3
C#CCCOC(=O)C1CN=CNC1 (centres unmarked)    100

Hi, could you look up PI cortex (at 100 μM) for each item in my list?
1. C#C/C(C)=C/COC(=O)C1CN=CNC1 (centres unmarked) [CDD-0161-A, HCl]
2. CC#CCOC(=O)C1CN=CNC1.Cl (centres unmarked)

OUTPUT:
1: 35; 2: 140
